test system: NCI-H322M; experiment: Growth inhibition of human NCI-H322M cells after 48 hrs by SRB staining method; assay type: functional
quantity_measured: GI50

CCOC(=O)CCC(NC(=O)c1ccc(Nc2nc3cc(N)cc(N)c3nc2-c2ccccc2)cc1)C(=O)OCC (stereo not given) ... 41.7 µM
COc1cc(Nc2nc3cc(N)cc(N)c3nc2-c2ccccc2)cc(OC)c1 ... 13.8 µM
Nc1cc(N)c2nc(-c3ccccc3)c(Nc3ccc(F)cc3)nc2c1 ... 17 µM
COc1ccc(Nc2nc3cc(N)cc(N)c3nc2-c2ccccc2)cc1 ... 23.4 µM
COc1ccc(Nc2nc3cc(N)cc(N)c3nc2-c2ccccc2)cc1OC ... > 100 µM

====

tested on: UACC-257; assay: Growth inhibition of human UACC257 cells after 48 hrs by SRB staining method; format: functional; details: UACC-257, 48 h, read-out: pTGI (converted)
Each entry below carries its reported TGI.
quantity_measured: TGI

COc1cc(Nc2nc3cc(N)cc(N)c3nc2-c2ccccc2)cc(OC)c1 ... 47.9 µM
COc1cc(Nc2nc3cc(N)cc(N)c3nc2-c2ccccc2)cc(OC)c1OC ... > 100 µM
COc1ccc(Nc2nc3cc(N)cc(N)c3nc2-c2ccccc2)cc1 ... 27.5 µM
Nc1cc(N)c2nc(-c3ccccc3)c(Nc3ccc(F)cc3)nc2c1 ... 28.8 µM
COc1ccc(Nc2nc3cc(N)cc(N)c3nc2-c2ccccc2)cc1OC ... > 100 µM
Nc1cc(N)c2nc(-c3ccccc3)c(Nc3ccc(Cl)c(Cl)c3)nc2c1 ... 28.2 µM
CCOC(=O)CCC(NC(=O)c1ccc(Nc2nc3cc(N)cc(N)c3nc2-c2ccccc2)cc1)C(=O)OCC (configuration not stated) ... 4.9 µM

====

tested on: COLO 205; experiment: Growth inhibition of human COLO205 cells after 48 hrs by SRB staining method; assay type: functional; conditions: COLO 205, 48 h, read-out: pTGI (converted)
quantity_measured: TGI (µM)

Nc1cc(N)c2nc(-c3ccccc3)c(Nc3ccc(Cl)c(Cl)c3)nc2c1 ... 31.6
COc1ccc(Nc2nc3cc(N)cc(N)c3nc2-c2ccccc2)cc1 ... 29.5
COc1cc(Nc2nc3cc(N)cc(N)c3nc2-c2ccccc2)cc(OC)c1OC ... 26.9
COc1ccc(Nc2nc3cc(N)cc(N)c3nc2-c2ccccc2)cc1OC ... 40.7
Nc1cc(N)c2nc(-c3ccccc3)c(Nc3ccc(F)cc3)nc2c1 ... 56.2
COc1cc(Nc2nc3cc(N)cc(N)c3nc2-c2ccccc2)cc(OC)c1 ... 31.6

====

system: K562; experiment: Growth inhibition of human K562 cells after 48 hrs by SRB staining method; format: functional; settings: K562, 48 h, read-out: pTGI (converted)
quantity_measured: TGI

Nc1cc(N)c2nc(-c3ccccc3)c(Nc3ccc(F)cc3)nc2c1 ... > 100 µM
COc1ccc(Nc2nc3cc(N)cc(N)c3nc2-c2ccccc2)cc1 ... > 100 µM
COc1ccc(Nc2nc3cc(N)cc(N)c3nc2-c2ccccc2)cc1OC ... 70.8 µM
COc1cc(Nc2nc3cc(N)cc(N)c3nc2-c2ccccc2)cc(OC)c1OC ... 39.8 µM
COc1cc(Nc2nc3cc(N)cc(N)c3nc2-c2ccccc2)cc(OC)c1 ... > 100 µM
Nc1cc(N)c2nc(-c3ccccc3)c(Nc3ccc(Cl)c(Cl)c3)nc2c1 ... > 100 µM

====

system: NCI-H322M; assay: Growth inhibition of human NCI-H322M cells after 48 hrs by SRB staining method; format: functional; conditions: read-out: pTGI (converted)
quantity_measured: TGI (µM)

Nc1cc(N)c2nc(-c3ccccc3)c(Nc3ccc(F)cc3)nc2c1 ... 35.5
COc1ccc(Nc2nc3cc(N)cc(N)c3nc2-c2ccccc2)cc1 ... 83.2
COc1ccc(Nc2nc3cc(N)cc(N)c3nc2-c2ccccc2)cc1OC ... 25.1
COc1cc(Nc2nc3cc(N)cc(N)c3nc2-c2ccccc2)cc(OC)c1 ... 58.9

====

test system: CAKI-1; experiment: Growth inhibition of human CAKI1 cells after 48 hrs by SRB staining method; format: functional; settings: CAKI-1, 48 h, read-out: pTGI (converted)
Label 1.0 when TGI is strictly below 70 µM; otherwise label 0.0.

COc1ccc(Nc2nc3cc(N)cc(N)c3nc2-c2ccccc2)cc1OC ... 1.0
CCOC(=O)CCC(NC(=O)c1ccc(Nc2nc3cc(N)cc(N)c3nc2-c2ccccc2)cc1)C(=O)OCC (configuration not stated) ... 0.0
Nc1cc(N)c2nc(-c3ccccc3)c(Nc3ccc(Cl)c(Cl)c3)nc2c1 ... 1.0
COc1cc(Nc2nc3cc(N)cc(N)c3nc2-c2ccccc2)cc(OC)c1 ... 0.0
Nc1cc(N)c2nc(-c3ccccc3)c(Nc3ccc(F)cc3)nc2c1 ... 1.0
COc1ccc(Nc2nc3cc(N)cc(N)c3nc2-c2ccccc2)cc1 ... 0.0
COc1cc(Nc2nc3cc(N)cc(N)c3nc2-c2ccccc2)cc(OC)c1OC ... 1.0

====

test system: ACHN; test: Growth inhibition of human ACHN cells after 48 hrs by SRB staining method; format: functional
quantity_measured: GI50 (µM)

CCOC(=O)CCC(NC(=O)c1ccc(Nc2nc3cc(N)cc(N)c3nc2-c2ccccc2)cc1)C(=O)OCC (stereo unspecified) ... 12.9
COc1ccc(Nc2nc3cc(N)cc(N)c3nc2-c2ccccc2)cc1 ... 15.1
Nc1cc(N)c2nc(-c3ccccc3)c(Nc3ccc(F)cc3)nc2c1 ... 10.2
COc1cc(Nc2nc3cc(N)cc(N)c3nc2-c2ccccc2)cc(OC)c1 ... 5.62
COc1ccc(Nc2nc3cc(N)cc(N)c3nc2-c2ccccc2)cc1OC ... 27.5
COc1cc(Nc2nc3cc(N)cc(N)c3nc2-c2ccccc2)cc(OC)c1OC ... 16.6

====

system: SK-MEL-2; experiment: Growth inhibition of human SK-MEL-2 cells after 48 hrs by SRB staining method; type: functional; conditions: SK-MEL-2, 48 h, read-out: pTGI (converted)
Decide using TGI: a value greater than or equal to 40 µM is Y, a smaller one is N.

COc1ccc(Nc2nc3cc(N)cc(N)c3nc2-c2ccccc2)cc1 ... N
CCOC(=O)CCC(NC(=O)c1ccc(Nc2nc3cc(N)cc(N)c3nc2-c2ccccc2)cc1)C(=O)OCC (configuration not stated) ... Y
COc1cc(Nc2nc3cc(N)cc(N)c3nc2-c2ccccc2)cc(OC)c1OC ... N
Nc1cc(N)c2nc(-c3ccccc3)c(Nc3ccc(F)cc3)nc2c1 ... Y
Nc1cc(N)c2nc(-c3ccccc3)c(Nc3ccc(Cl)c(Cl)c3)nc2c1 ... N
COc1cc(Nc2nc3cc(N)cc(N)c3nc2-c2ccccc2)cc(OC)c1 ... Y
COc1ccc(Nc2nc3cc(N)cc(N)c3nc2-c2ccccc2)cc1OC ... Y

====

Each entry below carries its reported CC50.
system: DU-145; assay: Growth inhibition of human DU145 cells after 48 hrs by SRB staining method; assay type: functional; conditions: DU-145, 48 h, read-out: pLC50 (the source's name) (converted)
quantity_measured: CC50

COc1cc(Nc2nc3cc(N)cc(N)c3nc2-c2ccccc2)cc(OC)c1 ... > 100 µM
COc1ccc(Nc2nc3cc(N)cc(N)c3nc2-c2ccccc2)cc1 ... > 100 µM
Nc1cc(N)c2nc(-c3ccccc3)c(Nc3ccc(Cl)c(Cl)c3)nc2c1 ... 63.1 µM
CCOC(=O)CCC(NC(=O)c1ccc(Nc2nc3cc(N)cc(N)c3nc2-c2ccccc2)cc1)C(=O)OCC (configuration not stated) ... > 100 µM
COc1ccc(Nc2nc3cc(N)cc(N)c3nc2-c2ccccc2)cc1OC ... > 100 µM
COc1cc(Nc2nc3cc(N)cc(N)c3nc2-c2ccccc2)cc(OC)c1OC ... > 100 µM
Nc1cc(N)c2nc(-c3ccccc3)c(Nc3ccc(F)cc3)nc2c1 ... 66.1 µM

====

system: SF-268; test: Growth inhibition of human SF268 cells after 48 hrs by SRB staining method; type: functional; conditions: SF-268, 48 h
quantity_measured: GI50 (µM)

Nc1cc(N)c2nc(-c3ccccc3)c(Nc3ccc(Cl)c(Cl)c3)nc2c1 ... 12
COc1cc(Nc2nc3cc(N)cc(N)c3nc2-c2ccccc2)cc(OC)c1 ... 5.62
CCOC(=O)CCC(NC(=O)c1ccc(Nc2nc3cc(N)cc(N)c3nc2-c2ccccc2)cc1)C(=O)OCC (configuration not stated) ... 23.4
COc1ccc(Nc2nc3cc(N)cc(N)c3nc2-c2ccccc2)cc1OC ... 14.1
COc1cc(Nc2nc3cc(N)cc(N)c3nc2-c2ccccc2)cc(OC)c1OC ... 18.2
COc1ccc(Nc2nc3cc(N)cc(N)c3nc2-c2ccccc2)cc1 ... 12.9
Nc1cc(N)c2nc(-c3ccccc3)c(Nc3ccc(F)cc3)nc2c1 ... 13.2
